Attribution: paper PMC5540273

Test system: NEK10
Settings: concentration: 1 μM, replicates: in singlicate; n = 1;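 note: KINOMEscan kinase panel screen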
# Lookup of reported %Inh keyed by entry
assayReadout: %Inh

1. CSc1ccc(NC2=C(c3ccc(Cl)cc3)C(=O)NC2=O)cc1 [SB-317658]: 14%
2. CN(c1ccc2c(c1)nc(NCc1ccccc1)n2C)c1ccnc(Nc2ccc(CS(C)(=O)=O)cc2)n1.Cl [GW811603]: 17%
3. c1ccc(Oc2ccc(Nc3ccnc4cc(-c5ccc(CN6CCCCC6)o5)ccc34)cc2)nc1 [GW567143]: 1%
4. CC(C)NCC(Cc1ccccc1)NC(=O)c1cc(Br)c(-c2ccnc3[nH]ccc23)s1.Cl.Cl (centres unmarked) [GSK1383281]: 2%
5. Fc1cc(Cl)ccc1Nc1ccnc2cc(-c3ccc(CN4CCOCC4)o3)ccc12 [GW560109]: 0%

====

System: MARK1
Conditions: concentration: 1 μM, replicates: in singlicate; n = 1
# Lookup of reported %Inh keyed by entry
assayReadout: %Inh (%)

1. Cc1cc(-c2ccnc(Nc3cccc(C#N)c3)n2)cc(C)c1O: 0
2. O=C(Nc1n[nH]c2nc(-c3ccccc3)ccc12)C1CC1: 0
3. Nc1ncnc2scc(-c3ccc(NC(=O)Cc4cc(F)ccc4F)cc3)c12.O=C(O)C(F)(F)F: 27
4. Cc1ccc(O)cc1Nc1ccnc2cc(-c3ccc(CN4CCCCC4)o3)ccc12: 8
5. c1ccc(Oc2ccc(Nc3ccnc4cc(-c5ccc(CN6CCCCC6)o5)ccc34)cc2)nc1: 0

====

Test system: BRK
Construct: gene PTK6
Conditions: concentration: 1 μM, replicates: in singlicate; n = 1
Label true when %Inh < 7%; otherwise false.

1. CN1CCN(Cc2ccc(NC(=O)Nc3ccc(N(C)c4ccnc(Nc5ccc(CS(C)(=O)=O)cc5)n4)cc3)cc2)CC1.Cl: false
2. O=C(O)C(F)(F)F.O=c1[nH]ccc2nc(N[C@@H]3CCNC3)nc(Nc3ccc4c(c3)S(=O)(=O)CC4)c12: false
3. CN(c1ccc(F)c(NC(=O)c2cccc(OC(C)(C)C#N)c2Cl)c1)c1ccc2nc(NC(=O)C3CC3)sc2n1: true
4. Fc1cc(Cl)ccc1Nc1ccnc2cc(-c3ccc(CN4CCOCC4)o3)ccc12: false
5. CNc1nccc(-c2ccc3c(N)n[nH]c3c2)n1: false
6. COC(=O)Nc1nc2ccc(Oc3ccc(NC(=O)Nc4cc(C(F)(F)F)ccc4F)cc3)cc2[nH]1.Cl: false
7. COc1cccc2c(-c3ccncc3)c(-c3ccc(F)cc3)nn12: true
8. COc1cc(Nc2ccnc3cc(-c4ccncc4)ccc23)cc(OC)c1OC.Cl: false

====

Test system: MINK
Construct: gene MINK1
Settings: concentration: 1 μM, replicates: in singlicate; n = 1
Label Yes when %Inh is at or above 30%; otherwise label No.

1. CC(C)c1nc(-c2cccc(NS(=O)(=O)c3c(F)cccc3F)c2)c(-c2ccnc(Nc3ccc(N4CCOCC4)nc3)n2)s1.Cl: No
2. COc1cc(Nc2ccnc3cc(-c4ccncc4)ccc23)cc(OC)c1OC.Cl: Yes
3. CS(=O)(=O)c1cccc(CNc2nc(Nc3ccc4c(c3)CCC(=O)N4)ncc2C(F)(F)F)c1: Yes
4. CCNC(=O)/C=C/c1n[nH]c2cc(Sc3ccccc3C(=O)NC)ccc12: Yes
5. c1ccc(Oc2ccc(Nc3ccnc4cc(-c5ccc(CN6CCCCC6)o5)ccc34)cc2)nc1: No

====

Test system: KIT-autoinhibited
Details: concentration: 1 μM, replicates: in singlicate; n = 1
Label met when %Inh < 3%; otherwise not met.

1) Cl.N#CCc1ccc(Nc2nccc(Nc3ccc(Oc4ccccc4)cc3)n2)cc1 [GW639905]: met
2) COC(=O)Nc1nc2ccc(Oc3ccc(NC(=O)Nc4cc(C(F)(F)F)ccc4F)cc3)cc2[nH]1.Cl [GW654607]: met
3) O=C1NC(=O)C(c2ccccc2Cl)=C1Nc1cccc(Cl)c1 [SB-342409]: met
4) CCn1cnc2c(NCc3ccccc3)ncnc21 [SKF-96418]: not met
5) Cc1ccc(O)cc1Nc1ccnc2cc(-c3ccc(CN4CCCCC4)o3)ccc12 [GW557777]: not met
6) Fc1cc(Cl)ccc1Nc1ccnc2cc(-c3ccc(CN4CCSCC4)o3)ccc12 [GW560106]: not met
7) Nc1ncc(-c2cn[nH]c2)c2scc(-c3ccc4c(c3)CCN4C(=O)Cc3ccccc3)c12 [GSK2593067]: not met
8) CN(C)c1ncnc2nc[nH]c12 [SKF-31736]: not met
9) Cc1ccc(NC(=O)c2ccnc(N3CCCCC3)c2)cc1-c1ccc(C(=O)NCC2CC2)cc1 [GW775610]: not met
10) CC(C)NCC(Cc1ccccc1)NC(=O)c1cc(Br)c(-c2ccnc3[nH]ccc23)s1.Cl.Cl (centres unmarked) [GSK1383281]: met

====

# Lookup of reported %Inh keyed by entry
Tested on: MEK2
Construct: gene MAP2K2
Conditions: concentration: 1 μM, replicates: in singlicate; n = 1
assayReadout: %Inh (%)

1. CSc1ccc(NC2=C(c3ccc(Cl)cc3)C(=O)NC2=O)cc1: 6
2. O=C1NC(=O)C(c2ccccc2Cl)=C1Nc1cccc(Cl)c1: 5
3. Cc1ccc(NC(=O)c2ccnc(N3CCCCC3)c2)cc1-c1ccc(C(=O)NCC2CC2)cc1: 0
4. COc1cc(Nc2nccc(N3CCC(NS(=O)(=O)c4ccc(NC(C)=O)cc4)CC3)n2)cc(OC)c1OC: 0
5. CCNc1nccc(-c2c(-c3ccc(F)cc3)ncn2C2CCN(C)CC2)n1: 15
6. CN(c1ccc(F)c(NC(=O)c2cccc(OC(C)(C)C#N)c2Cl)c1)c1ccc2nc(NC(=O)C3CC3)sc2n1: 49
7. c1ccc(Oc2ccc(Nc3ccnc4cc(-c5ccc(CN6CCCCC6)o5)ccc34)cc2)nc1: 97.1
8. COc1ccc(NC(=O)c2ccoc2)cc1-c1ccc(C(=O)NCC2CC2)cc1: 24
9. COC(=O)Nc1nc2ccc(Oc3ccc(CC(=O)Nc4cc(C(F)(F)F)ccc4F)cc3)cc2[nH]1: 0

====

Test system: SRPK2
Settings: concentration: 1 μM, replicates: in singlicate; n = 1
# Lookup of reported %Inh keyed by entry
assayReadout: %Inh (%)

1) Cc1cc(-c2ccnc(Nc3cccc(C#N)c3)n2)cc(C)c1O: 54
2) Nc1ncc(-c2cn[nH]c2)c2scc(-c3ccc4c(c3)CCN4C(=O)Cc3ccccc3)c12: 0
3) CC(=O)Nc1cn2nc(Oc3cccc(NC(=O)c4cccc(C(F)(F)F)c4)c3)ccc2n1: 22

====

Test system: INSRR
Conditions: concentration: 1 μM, replicates: in singlicate; n = 1
assayReadout: %Inh (%)

1) Cc1ccc(O)cc1Nc1ccnc2cc(-c3ccc(CN4CCCCC4)o3)ccc12: 4
2) COc1cccc2c(-c3ccncc3)c(-c3ccc(F)cc3)nn12: 9
3) COC(=O)Nc1nc2ccc(Oc3ccc(NC(=O)Nc4cc(C(F)(F)F)ccc4F)cc3)cc2[nH]1.Cl: 0
4) Fc1cc(Cl)ccc1Nc1ccnc2cc(-c3ccc(CN4CCSCC4)o3)ccc12: 0
5) COC(=O)Nc1nc2cc(Oc3ccc(NC(=O)Nc4cccc(SC)c4)cc3)ccc2[nH]1.Cl: 0
6) O=C(Nc1n[nH]c2nc(-c3cccc(O)c3)ccc12)C1CC1: 0
7) NCCC(NC(=O)c1cc(Br)c(-c2ccnc3[nH]ccc23)s1)c1ccccc1.O=C(O)C(F)(F)F.O=C(O)C(F)(F)F (stereo not drawn): 0
8) CN(c1ccc(F)c(NC(=O)c2cccc(OC(C)(C)C#N)c2Cl)c1)c1ccc2nc(NC(=O)C3CC3)sc2n1: 0
9) CN(C)c1ncnc2nc[nH]c12: 9
10) Fc1cc(Cl)ccc1Nc1ccnc2cc(-c3ccc(CN4CCOCC4)o3)ccc12: 5
11) CCn1c(-c2nonc2N)nc2c(-c3ccccc3)ncc(OCCCN)c21.O=C(O)C(F)(F)F.O=C(O)C(F)(F)F: 0
12) CC(C)(C)c1ccc(C(=O)Nc2cn3cc(-n4ccnc4)ccc3n2)cc1: 5
13) Cc1ccc(NC(=O)c2ccc(Cl)c(Cl)c2)cc1-c1ccc(C(=O)Nc2ccncc2)cc1: 0
14) Cl.Cl.NC(CNC(=O)c1cc(Br)c(-c2ccnc3[nH]ccc23)s1)c1ccccc1 (stereo not drawn): 0
15) COc1cc(Nc2nccc(N3CCC(NS(=O)(=O)c4ccc(NC(C)=O)cc4)CC3)n2)cc(OC)c1OC: 0
16) CSc1ccc(NC2=C(c3ccc(Cl)cc3)C(=O)NC2=O)cc1: 30
17) CC(=O)Nc1cn2nc(Oc3cccc(NC(=O)c4cccc(C(F)(F)F)c4)c3)ccc2n1: 0
18) CCn1cnc2c(NCc3ccccc3)ncnc21: 0
19) Nc1cccc(-c2ccc3c(N)n[nH]c3c2)c1: 0
20) Nc1ncnc2scc(-c3ccc(NC(=O)Cc4cc(F)ccc4F)cc3)c12.O=C(O)C(F)(F)F: 65
21) O=C(Nc1n[nH]c2cc(-c3cccs3)ccc12)C1CC1: 0
22) Cl.Cl.NCC(NC(=O)c1cc(-c2cccnc2)c(-c2ccnc3[nH]ccc23)s1)c1ccccc1 (stereo not drawn): 0
23) COc1cccc(NC(=O)NCCNc2ccnc(Nc3ccc(F)cc3)n2)c1: 0
24) CCOc1nccc(-c2c(-c3ccc(F)cc3)ncn2C2CCNCC2)n1: 4
25) CCNC(=O)/C=C/c1n[nH]c2cc(Sc3ccccc3C(=O)NC)ccc12: 34
26) Cc1cccc(Nc2nc(N[C@H]3CCCC[C@H]3N)ncc2C(N)=O)c1.Cl: 8
27) Cc1cc(-c2ccnc(Nc3cccc(C#N)c3)n2)cc(C)c1O: 23
28) Cc1ccc(NC(=O)c2ccnc(N3CCCCC3)c2)cc1-c1ccc(C(=O)NCC2CC2)cc1: 0
29) COc1cccc(C2=C(Nc3cccc(O)c3)C(=O)NC2=O)c1: 0
30) O=C1NC(=O)C(c2ccccc2Cl)=C1Nc1cccc(Cl)c1: 1
